Readings of IC50 for the listed binders
# Test target: T1, beta-Catenin (full-length, Uniprot ID P35222) (Homo sapiens (Human), UniProt P35222 1-781)
# T1 construct: also called bCat; B-Catenin
# T1 sequence: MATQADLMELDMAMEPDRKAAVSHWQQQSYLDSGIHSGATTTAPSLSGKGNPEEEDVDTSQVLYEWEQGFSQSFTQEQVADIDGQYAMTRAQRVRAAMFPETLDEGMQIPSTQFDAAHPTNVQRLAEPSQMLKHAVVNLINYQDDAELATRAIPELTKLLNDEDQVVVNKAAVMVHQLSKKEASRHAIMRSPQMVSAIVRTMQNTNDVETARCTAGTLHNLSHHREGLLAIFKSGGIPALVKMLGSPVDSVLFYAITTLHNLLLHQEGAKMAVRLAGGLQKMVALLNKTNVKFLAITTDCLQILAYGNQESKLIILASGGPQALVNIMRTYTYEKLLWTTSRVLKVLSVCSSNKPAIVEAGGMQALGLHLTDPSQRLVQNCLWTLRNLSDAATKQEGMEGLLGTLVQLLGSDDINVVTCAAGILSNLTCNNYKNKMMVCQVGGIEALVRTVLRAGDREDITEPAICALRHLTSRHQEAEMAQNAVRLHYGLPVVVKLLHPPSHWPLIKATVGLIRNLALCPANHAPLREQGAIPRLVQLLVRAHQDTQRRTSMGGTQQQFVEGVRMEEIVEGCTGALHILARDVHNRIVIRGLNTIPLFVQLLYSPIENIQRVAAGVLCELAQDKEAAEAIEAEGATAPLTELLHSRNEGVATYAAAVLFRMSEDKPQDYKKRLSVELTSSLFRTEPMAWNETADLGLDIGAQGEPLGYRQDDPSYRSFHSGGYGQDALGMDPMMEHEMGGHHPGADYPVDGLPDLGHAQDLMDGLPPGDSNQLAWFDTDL
# Experiment description: fluorescence polarization competition: peptide titrated against 10 nM full-length beta-catenin + 10 nM 5FAM-labeled TCF4 residues 10-53 probe
Starred links: 1 amine or outer side, 2 acyl side, 3 side chain; linkers in the order of their positions; H or OH if unused. Positions of bridges follow the written chain, without caps; N, C: chain ends. Non-standard residues stand in square brackets, D forms with d. Primed or numbered codes have the meaning given here. B5(4) = 2,2-bis(4-pentenyl)glycine = 2-amino-2-(pent-4-en-1-yl)hept-6-enoic acid (stitching residue), C=CCCCC(CCCC=C)(N[*:1])C(=O)[*:2]; Phe(4-F) = N[C@@H](Cc1ccc(F)cc1)C(=O)O; αAllylPro = C=CC[C@@]1(C(=O)O)CCCN1; S8 = C=CCCCCCC[C@](C)(N)C(=O)O

# Binder, IC50, µM
measured = [
    ("XDAXDDAAFVXFWQ (not fully specified; N-terminal Ac; PL3 at position 1; B5 at position 4; S8 at position 11; 34FF at position 12; C-terminal NH2; stapled by olefin metathesis (PL3-B5 and B5-S8), It is the earlier-eluting isomer composition) [I-262: Ac-PL3-Asp-Ala-B5-Asp-Asp-Ala-Ala-Phe-Val-S8-34FF-Trp-Gln-NH2]", 5),
    ("Ac-[αAllylPro]DA[B5(4)]DDAAFV[S8][Phe(4-F)]WQ-NH2 (staple 1-4, 4-11, Stapled peptide) [I-261: Ac-PL3-Asp-Ala-B5-Asp-Asp-Ala-Ala-Phe-Val-S8-4FF-Trp-Gln-NH2]", 5),
    ("XDAXDDAAFVXFWQ (not fully specified; N-terminal Ac; PL3 at position 1; B5 at position 4; S8 at position 11; 4F3MeF at position 12; C-terminal NH2; stapled by olefin metathesis (PL3-B5 and B5-S8), These are separate isomer compositions) [I-254: Ac-PL3-Asp-Ala-B5-Asp-Asp-Ala-Ala-Phe-Val-S8-4F3MeF-Trp-Gln-NH2]", 5),
]

meta.source: patent US20240116985A1
